- study.system: 5-hydroxytryptamine receptor 2A (Mus musculus) (UniProt P35363)
- Sequence (P35363 whole entry, looked up): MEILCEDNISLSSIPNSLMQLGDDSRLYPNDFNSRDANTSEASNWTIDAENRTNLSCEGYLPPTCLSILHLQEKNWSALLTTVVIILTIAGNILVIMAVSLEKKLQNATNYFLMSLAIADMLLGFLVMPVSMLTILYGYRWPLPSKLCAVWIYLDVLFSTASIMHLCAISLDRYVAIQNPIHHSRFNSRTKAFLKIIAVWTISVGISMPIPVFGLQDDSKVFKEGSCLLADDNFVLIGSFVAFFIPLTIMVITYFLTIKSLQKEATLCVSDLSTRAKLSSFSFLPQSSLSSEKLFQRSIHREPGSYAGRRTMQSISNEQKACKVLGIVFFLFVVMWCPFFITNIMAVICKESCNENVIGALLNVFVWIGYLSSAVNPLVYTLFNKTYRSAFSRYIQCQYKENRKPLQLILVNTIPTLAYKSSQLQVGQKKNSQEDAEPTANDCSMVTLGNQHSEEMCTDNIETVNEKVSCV
- assay.summary: agonist activity at mouse 5-HT2A receptor – cell-based, luminescence, CHO-K1 PathHunter, triplicate, confirmation (AID 624381)
- experimental.parameters: CHO-K1 PathHunter beta-arrestin recruitment, at 7.6 µM, hits give high values, DMSO 0%, 30 µM serotonin 100%
About 430 (19%) of roughly 2,300 compounds were called active. Only a sample is shown.
value.kind: activation (%)
Please reply with the bare figure in % and do not write the unit itself.

State the recorded activation for this entry: O=C(c1ccco1)N1CCN(CCOc2ccccc2)CC1
34.5

Subsequent entry: COc1ccccc1CN1CCN(Cc2cc(OC)c(OC)cc2OC)CC1
8.39

Subsequent entry: Cc1ccc(CN2CCN(c3ncccn3)CC2)c(C)c1
118

Subsequent entry: C=C1C(=O)OC2C1CCC(C)=CCCC1(C)OC21 (configuration not stated)
-6.24

Subsequent entry: N#CCSc1nn(-c2ccc(F)cc2)c(=S)s1
-4.94

Subsequent entry: CNCC(O)c1ccc(O)c(O)c1 (configuration not stated)
136

Subsequent entry: Oc1ccc(CN2CCN(c3ncccn3)CC2)cc1
101
